# system_name: Proteasome subunit beta (Trypanosoma cruzi) (UniProt O96673)
# Sequence (O96673 as listed by the source): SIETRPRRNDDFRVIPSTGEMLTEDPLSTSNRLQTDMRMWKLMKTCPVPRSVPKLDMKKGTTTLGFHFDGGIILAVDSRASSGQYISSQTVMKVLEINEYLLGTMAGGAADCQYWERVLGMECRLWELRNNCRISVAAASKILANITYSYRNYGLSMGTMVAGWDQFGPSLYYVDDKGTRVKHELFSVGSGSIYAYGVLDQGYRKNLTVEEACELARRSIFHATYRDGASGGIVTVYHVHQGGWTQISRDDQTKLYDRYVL
# test_summary: Trypanosoma cruzi proteasome chymotrypsin-like activity (TcProtChymo) assay.
# Assay type: functional
# Set-up: scale not given: in the data most compounds retested in dose-response had high values
# assay_setup: 9.37 µM
Reported Percent Effect is given for each of the following compounds.
result_type: Percent Effect (%)

compound=c1ccc(OC[C@]23COC[C@H]2CN(Cc2ccoc2)C3)nc1 result_type="Percent Effect" numeric_readout=12.1
compound=c1cncc(CO[C@H]2CC[C@H]3[C@@H]2OCCN3C2CCOCC2)c1 result_type="Percent Effect" numeric_readout=4.37
compound=Cn1cc(C(=O)N2CC[C@@H]3[C@@H]2CCN3Cc2cccnc2)cn1 result_type="Percent Effect" numeric_readout=17.7
compound=COCCO[C@@H]1C[C@H]2CN(C(=O)c3ccc(C)nc3)CCN2C1 result_type="Percent Effect" numeric_readout=8.89
compound=Cc1noc(C)c1CN1CC[C@H]2OCC[C@@]2(C(=O)N2CCCO2)C1 result_type="Percent Effect" numeric_readout=16.5
compound="c1cnc(N2CCC3(COCCN(CC4CC4)C3)C2)nc1 (configuration not stated)" result_type="Percent Effect" numeric_readout=14.2
compound="O=C(C1CC(=O)N(c2ccccc2Br)C1)N1CCC2(CC1)OCCO2 (configuration not stated)" result_type="Percent Effect" numeric_readout=11.2
compound=CN(CCc1ccc(F)cc1)Cc1nc2c(cnn2C)c(=O)[nH]1 result_type="Percent Effect" numeric_readout=14.5
compound=Cc1cc(CN2C[C@@H]3COC[C@]3(CN(C)C)C2)no1 result_type="Percent Effect" numeric_readout=26.4
compound=c1csc(CN2CC[C@H]3C[C@H](c4ccncn4)O[C@@H]3C2)c1 result_type="Percent Effect" numeric_readout=19.7
compound=CN(Cc1cccnc1)[C@@H]1CN(CC2CC2)[C@@H]2CCCO[C@H]12 result_type="Percent Effect" numeric_readout=3.42
compound=CN1CCN(Cc2ccoc2)Cc2cccnc21 result_type="Percent Effect" numeric_readout=-0.265
compound=O=C(c1cnn2c1OCCC2)N1CCC2(CC1)OCCO2 result_type="Percent Effect" numeric_readout=7.49
compound=CC(C)CN1CCC2(C1)CN(c1ncccn1)C2 result_type="Percent Effect" numeric_readout=10.3
compound=C[C@H]1C(=O)NC[C@H]2CN(Cc3ccccc3)C[C@H]21 result_type="Percent Effect" numeric_readout=-1.12
compound=CCS(=O)(=O)N[C@@H]1CN(Cc2cc(C)on2)C[C@@H]2CCCO[C@@H]21 result_type="Percent Effect" numeric_readout=6.27
compound=COCCN1CCN(Cc2ccncc2)[C@H]2CS(=O)(=O)C[C@H]21 result_type="Percent Effect" numeric_readout=5.99
compound="c1cncc(N2CCOCC3(CCCN(Cc4cccs4)C3)C2)c1 (configuration not stated)" result_type="Percent Effect" numeric_readout=10.3
compound="COCC(=O)NC(C)Cc1cccc(OC)c1 (configuration not stated)" result_type="Percent Effect" numeric_readout=11.5
compound=Cc1ncccc1OCC(=O)N1CCN[C@H]2CS(=O)(=O)C[C@H]21 result_type="Percent Effect" numeric_readout=14.2
compound=O=C(c1ccsc1)N1CCN2C[C@H](OCc3cccnc3)C[C@H]2C1 result_type="Percent Effect" numeric_readout=11.5
compound=CN1CCC2(CC1)CNC(=O)c1ccccc1O2 result_type="Percent Effect" numeric_readout=10.3
compound=O=C(CC1CC1)N[C@@H]1CN(Cc2ccncc2)C[C@@H]2CCCO[C@@H]21 result_type="Percent Effect" numeric_readout=8.38
compound="COc1cc(CNCC(O)c2ccc(F)c(F)c2)cc2c1OCO2 (configuration not stated)" result_type="Percent Effect" numeric_readout=18.1
compound=O=C(Nc1cccnc1)[C@H]1COC[C@H]2CN(C3CCCC3)C[C@H]21 result_type="Percent Effect" numeric_readout=10.2
compound=COc1ccc(Cl)cc1CC(=O)N1CCN(CCO)CC1 result_type="Percent Effect" numeric_readout=0.877
compound="Cc1ccccc1CC(C)NCc1c(C)nn(C)c1N1CCOCC1 (configuration not stated)" result_type="Percent Effect" numeric_readout=2.46
compound="O=C1N(Cc2cccnc2)CCC12CCCNC2 (configuration not stated)" result_type="Percent Effect" numeric_readout=20
compound="CCc1nc(CC(=O)N2CCCC2CN2CCCC2)cs1 (configuration not stated)" result_type="Percent Effect" numeric_readout=11.1
compound=Cc1cccc(CO[C@@H]2CC[C@H]3[C@H]2OCCN3Cc2ccsc2)n1 result_type="Percent Effect" numeric_readout=13.3
compound=c1cncc(CN2CC[C@H]3O[C@@H](COCC4CC4)CC[C@H]32)c1 result_type="Percent Effect" numeric_readout=-2.38
compound=CCc1nc(CN2CCN(C(=O)Cc3c(C)noc3C)CC2)cs1 result_type="Percent Effect" numeric_readout=6.06
compound="CCc1noc(C(C)N2CCNCC2)n1 (configuration not stated)" result_type="Percent Effect" numeric_readout=13.3
compound=Cc1ccc(N2CCO[C@H]3CN(Cc4ccncc4)C[C@H]32)nn1 result_type="Percent Effect" numeric_readout=19.6
compound="COCCN1CCC2(COCc3cnc(N4CCOCC4)nc32)C1 (configuration not stated)" result_type="Percent Effect" numeric_readout=2.03
compound=Cc1nnc([C@H]2CC[C@@H]3[C@@H](CCN3Cc3c(C)noc3C)O2)o1 result_type="Percent Effect" numeric_readout=11.4
compound=CCN(CCc1ccccc1)Cn1nc(C)c2c(C)onc2c1=O result_type="Percent Effect" numeric_readout=7.75
compound=CO[C@@H]1CC[C@H]2[C@H]1OCCN2CC1CCOCC1 result_type="Percent Effect" numeric_readout=8.88
compound=CCN1C[C@H]2[C@@H](C1)N(S(=O)(=O)c1cccnc1)CC[C@H]2OC result_type="Percent Effect" numeric_readout=4.49
compound="Cc1n[nH]c2c1C(c1cnn(C)c1)SCC(=O)N2 (configuration not stated)" result_type="Percent Effect" numeric_readout=11.8
compound="NCC1[C@H]2CN(CCc3ccccc3)C[C@@H]12 (some centres not stated)" result_type="Percent Effect" numeric_readout=11.1
compound=NC(=O)N1CC2(CCNCC2)c2cc(Cl)ccc21 result_type="Percent Effect" numeric_readout=8.84
compound=CC(C)NC(=O)[C@H]1C[C@@H]2[C@@H](C1)OCCN2Cc1cccnc1 result_type="Percent Effect" numeric_readout=1.54
compound="O=C1CSC(c2ccsc2)c2c(n(C3CCOCC3)[nH]c2=O)N1 (configuration not stated)" result_type="Percent Effect" numeric_readout=8.13
compound=NC(=O)CN1CCCN(C(=O)Cc2ccc3c(c2)OCO3)CC1 result_type="Percent Effect" numeric_readout=3.48
compound=c1ccc(OC[C@H]2CCC[C@]23CN(Cc2nccs2)CCO3)nc1 result_type="Percent Effect" numeric_readout=3.08
compound="c1cncc(N2CCCC3(CN(Cc4cccs4)CCO3)C2)c1 (configuration not stated)" result_type="Percent Effect" numeric_readout=8.12
